- System: E. faecalis
- ASSAY PROTOCOL: Antibacterial activity evaluation (turbidity, OD600)
- Format: cell-based, Enterococcus faecalis (JCM7783)
- CONDITION INFO: Enterococcus faecalis; E. faecalis JCM7783; read-out: EC50
ENDPOINT: EC50

- MOLECULE: "O=c1[nH]c(=O)n([C@H]2C[C@H](O)[C@@H](CO)O2)cc1F"
  ENDPOINT: "EC50"
  RESULT: "310 nM"
- MOLECULE: "Cc1n[nH]c2c1[C@](c1cc(CO)cc(-c3ccccc3)c1)(C(C)C)C(C#N)=C(N)O2 [(+)-SHIN-1]"
  ENDPOINT: "EC50"
  RESULT: "> 2000 nM"
- MOLECULE: "Cc1n[nH]c2c1C(c1cc(N3CCCC3)cc(C(F)(F)F)c1)(C(C)C)C(C#N)=C(N)O2 (centres unmarked)"
  ENDPOINT: "EC50"
  RESULT: "> 100000 nM"
- MOLECULE: "CN(Cc1cnc2nc(N)nc(N)c2n1)c1ccc(C(=O)N[C@@H](CCC(=O)O)C(=O)O)cc1 [MTX, methotrexate]"
  ENDPOINT: "EC50"
  RESULT: "14000 nM"
- MOLECULE: "COc1cc(Cc2cnc(N)nc2N)cc(OC)c1OC"
  ENDPOINT: "EC50"
  RESULT: "270 nM"
- MOLECULE: "O=c1[nH]c(=O)n([C@@H]2O[C@H](CO)[C@@H](O)[C@H]2O)cc1F"
  ENDPOINT: "EC50"
  RESULT: "380 nM"
- MOLECULE: "Nc1nc2[nH]cc(CCc3ccc(C(=O)N[C@@H](CCC(=O)O)C(=O)O)cc3)c2c(=O)[nH]1"
  ENDPOINT: "EC50"
  RESULT: "> 100000 nM"
- MOLECULE: "Cc1nc2ccc(CN(C)c3ccc(C(=O)N[C@@H](CCC(=O)O)C(=O)O)s3)cc2c(=O)[nH]1"
  ENDPOINT: "EC50"
  RESULT: "> 100000 nM"

----------
- Test system: E. faecium
- ASSAY PROTOCOL: Antibacterial assay with an excess concentration of biomolecules (Ser, Gly, inosine, dT, FA)
- Assay type: cell-based, Enterococcus faecium (JCM5804)
- CONDITION INFO: Enterococcus faecium, JCM5804, E. faecium JCM5804; 1 mM deoxythymidine; read-out: pEC50 ± S.E. (converted)
ENDPOINT: EC50 (µM)

- COMPOUND: "Nc1nc2[nH]cc(CCc3ccc(C(=O)N[C@@H](CCC(=O)O)C(=O)O)cc3)c2c(=O)[nH]1"
  STUDY TARGET: "E. faecium"
  ENDPOINT: "EC50"
  REPORTED RELATION: ">"
  QUANTITATIVE READOUT: 100
- COMPOUND: "Cc1nc2ccc(CN(C)c3ccc(C(=O)N[C@@H](CCC(=O)O)C(=O)O)s3)cc2c(=O)[nH]1"
  STUDY TARGET: "E. faecium"
  ENDPOINT: "EC50"
  REPORTED RELATION: ">"
  QUANTITATIVE READOUT: 100
- COMPOUND: "O=c1[nH]c(=O)n([C@@H]2O[C@H](CO)[C@@H](O)[C@H]2O)cc1F"
  STUDY TARGET: "E. faecium"
  ENDPOINT: "EC50"
  REPORTED RELATION: "="
  QUANTITATIVE READOUT: 20
- COMPOUND: "Cc1n[nH]c2c1C(c1cc(N3CCCC3)cc(C(F)(F)F)c1)(C(C)C)C(C#N)=C(N)O2 (stereo not shown)"
  STUDY TARGET: "E. faecium"
  ENDPOINT: "EC50"
  REPORTED RELATION: "="
  QUANTITATIVE READOUT: 3.16

----------
- STUDY TARGET: efmSHMT (Enterococcus faecium, UniProt I3U4H4, M1V)
- Sequence (I3U4H4 whole entry M1V): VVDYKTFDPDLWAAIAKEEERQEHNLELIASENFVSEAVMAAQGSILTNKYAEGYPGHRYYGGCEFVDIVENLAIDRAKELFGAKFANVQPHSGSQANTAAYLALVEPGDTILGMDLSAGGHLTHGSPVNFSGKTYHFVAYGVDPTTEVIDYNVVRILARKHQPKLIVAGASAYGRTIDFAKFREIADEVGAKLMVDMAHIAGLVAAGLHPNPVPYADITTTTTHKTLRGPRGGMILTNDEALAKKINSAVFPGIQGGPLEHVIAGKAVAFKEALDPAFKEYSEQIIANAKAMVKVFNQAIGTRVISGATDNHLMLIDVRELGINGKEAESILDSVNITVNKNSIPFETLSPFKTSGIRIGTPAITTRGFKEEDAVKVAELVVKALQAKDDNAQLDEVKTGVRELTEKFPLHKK
- ASSAY PROTOCOL: biochemical
- Assay type: binding
- CONDITION INFO: actual Ki (bound, as the assay's efmSHMT detection limit is 2.5 μM), efmSHMT

- MOLECULE: "Cc1n[nH]c2c1[C@](c1cc(CO)cc(-c3ccccc3)c1)(C(C)C)C(C#N)=C(N)O2 [(+)-SHIN-1]"
  Ki: "< 8.8 nM"

----------
- Test system: E. faecium
- ASSAY PROTOCOL: Antibacterial assay with an excess concentration of biomolecules (Ser, Gly, inosine, dT, FA)
- Assay type: cell-based, Enterococcus faecium (JCM5804)
- CONDITION INFO: Enterococcus faecium, JCM5804, E. faecium JCM5804; 1 mM deoxythymidine; read-out: pEC50 ± S.E. (converted)
The molecules listed here are annotated with their EC50.
ENDPOINT: EC50

- MOLECULE: "O=c1[nH]c(=O)n([C@H]2C[C@H](O)[C@@H](CO)O2)cc1F"
  RESULT: "> 100 µM"
- MOLECULE: "COc1cc(Cc2cnc(N)nc2N)cc(OC)c1OC"
  RESULT: "50.1 µM"
- MOLECULE: "CN(Cc1cnc2nc(N)nc(N)c2n1)c1ccc(C(=O)N[C@@H](CCC(=O)O)C(=O)O)cc1 [MTX, methotrexate]"
  RESULT: "> 100 µM"
- MOLECULE: "Cc1n[nH]c2c1[C@](c1cc(CO)cc(-c3ccccc3)c1)(C(C)C)C(C#N)=C(N)O2 [(+)-SHIN-1]"
  RESULT: "> 2 µM"

----------
- System: E. faecium
- ASSAY PROTOCOL: Antibacterial activity evaluation (turbidity, OD600)
- Assay type: cell-based, Enterococcus faecium (JCM5804)
- CONDITION INFO: E. faecium JCM5804; read-out: EC50
pEC50: −log10 of the molar value.
ENDPOINT: pEC50

- MOLECULE: "Cc1[nH]nc2c1C(c1cc(CO)cc(-c3ccccc3)c1)(C(C)C)C(C#N)=C(N)O2 (stereo not shown)"
  QUANTITATIVE READOUT: 9.30

----------
The molecules listed here are annotated with their EC50.
- System: S. aureus
- ASSAY PROTOCOL: Antibacterial activity evaluation (turbidity, OD600)
- Type: cell-based, Staphylococcus aureus (ATCC29213)
- CONDITION INFO: Staphylococcus aureus; S. aureus ATCC29213; read-out: pEC50 ± S.E. (converted)
- Protocol: E. faecium and E. faecalis were diluted to turbidity equivalents that matched 1.0 McFarland (McF) standard in distilled water (S. aureus and E. coli were also diluted to 0.5 McF), and additionally diluted 1:200 in Mueller–Hinton (MH) broth. […] The optical density at 600 nm (OD600) was measured using a GloMax microtiter plate reader (Promega, WI, USA), and the EC50 values of each test compound and standard error were calculated by Microsoft Excel function, AVERAGE and STDEV/SQRT.
ENDPOINT: EC50

- MOLECULE: "COc1cc(Cc2cnc(N)nc2N)cc(OC)c1OC"
  RESULT: "316 nM"
- MOLECULE: "Cc1nc2ccc(CN(C)c3ccc(C(=O)N[C@@H](CCC(=O)O)C(=O)O)s3)cc2c(=O)[nH]1"
  RESULT: "> 100000 nM"
- MOLECULE: "Cc1n[nH]c2c1[C@](c1cc(CO)cc(-c3ccccc3)c1)(C(C)C)C(C#N)=C(N)O2 [(+)-SHIN-1]"
  RESULT: "> 2000 nM"
- MOLECULE: "CN(Cc1cnc2nc(N)nc(N)c2n1)c1ccc(C(=O)N[C@@H](CCC(=O)O)C(=O)O)cc1 [MTX, methotrexate]"
  RESULT: "> 100000 nM"
- MOLECULE: "Cc1n[nH]c2c1C(c1cc(N3CCCC3)cc(C(F)(F)F)c1)(C(C)C)C(C#N)=C(N)O2 (centres unmarked)"
  RESULT: "≥ 100000 nM"
- MOLECULE: "Nc1nc2[nH]cc(CCc3ccc(C(=O)N[C@@H](CCC(=O)O)C(=O)O)cc3)c2c(=O)[nH]1"
  RESULT: "> 100000 nM"
- MOLECULE: "O=c1[nH]c(=O)n([C@H]2C[C@H](O)[C@@H](CO)O2)cc1F"
  RESULT: "7.94 nM"
- MOLECULE: "O=c1[nH]c(=O)n([C@@H]2O[C@H](CO)[C@@H](O)[C@H]2O)cc1F"
  RESULT: "31.6 nM"

----------
The compounds listed here are annotated with their Ki.
- STUDY TARGET: efmSHMT (Enterococcus faecium, UniProt I3U4H4, M1V)
- ASSAY PROTOCOL: biochemical
- Type: binding
- CONDITION INFO: Ki, 5 μM efmSHMT; 10 mM Gly and 100 μM Ser; Cheng-Prusoff
- Protocol: After adding Me-THF, the efmSHMT solution was incubated for 30 min at room temperature. The optical density at 500 and 600 nm (OD500 and OD600) were then measured using a nanodrop spectrophotometer[24],[25]. OD600 was used as the background. […] OD500 and OD600 were measured. The relative OD500 intensity was calculated as relative OD500 = (OD500 – OD600)/(MAXOD500 – OD600), where MAXOD500 is the average OD500 value in the presence of 1000, 2000 and 4000 μM Me-THF without inhibitors. […]

- COMPOUND: "Cc1n[nH]c2c1[C@](c1cc(CO)cc(-c3ccccc3)c1)(C(C)C)C(C#N)=C(N)O2 [(+)-SHIN-1]"
  UNIT OF MEASUREMENT: "µM"
  Ki: 0.028
- COMPOUND: "Nc1nc2[nH]cc(CCc3ccc(C(=O)N[C@@H](CCC(=O)O)C(=O)O)cc3)c2c(=O)[nH]1 [PMX, pemetrexed]"
  UNIT OF MEASUREMENT: "µM"
  Ki: 117
